Values from paper PMC11264232

- Tested on: NCI 60 human tumor cell line panel
- protocol details: NCI-60 five-dose screen, average across panel
- Type: cell-based
- measurement setup: five-dose 0.01–100 μM; read-out: average LC50 across all cell lines in the panel

| molecule | u | LC50 |
| --- | --- | --- |
| CC(=NN=C([S-])Nc1cc(C)c(O)c(C)c1)c1cccc(CN2CCOCC2)n1.CC(=NN=C([S-])Nc1cc(C)c(O)c(C)c1)c1cccc(CN2CCOCC2)n1.O=[N+]([O-])[O-].[Fe+3] [Complex 4, [Fe^III(L^2)2]NO3] | µM | 51.2 |

* * *

Catalogue of pIC50 values
- Tested on: A549 human lung adenocarcinoma cells
- protocol details: MTT viability assay, 24 h
- measurement setup: Homo sapiens, A549, 24 h, read-out: IC50 values A549
pIC50: −log10 of the molar value.

| smiles input | study system | pIC50 |
| --- | --- | --- |
| Cc1cc(NC(=S)N/N=C/c2cccc(CN3CCOCC3)n2)cc(C)c1O | A549 human lung adenocarcinoma cells | 4.14 |
| S=C(N/N=C/c1cccc(CN2CCOCC2)n1)Nc1ccccc1 | A549 human lung adenocarcinoma cells | < 4.10 |
| C/C(=N\NC(=S)Nc1cc(C)c(O)c(C)c1)c1cccc(CN2CCOCC2)n1 | A549 human lung adenocarcinoma cells | < 4.10 |
